Where do the numbers come from? From paper PMC8537901.

assay_text: Tissue homogenate stability assay, human liver homogenate
Type: in vitro ADME
measurement_context: human, liver homogenate, human liver homogenate + 1 mM NADPH, 1 µM progesterone, 5 mg/mL protein, 37 °C
Experimental: Progesterone stability was determined in rat and human intestinal mucosa and liver homogenates. In addition, progesterone was incubated in stock solution containing phosphate-buffered saline, 0.1% Tween80 and 1% DMSO. […] Stability assays were carried out either in the presence or absence of 1mM of the cofactor NADPH. The physiological concentration of NADPH was approximately 100 µM [26]. […]
observable: half-life (min)
Answer with a number only, understood to be in min.

Q: Can you share its half-life? I mean this compound: CC(=O)[C@H]1CC[C@H]2[C@@H]3CCC4=CC(=O)CC[C@]4(C)[C@H]3CC[C@]12C [Progesterone]
Ans: 2.7

###

assay_text: Human cytosol stability assay, liver cytosol
measurement_context: human, human liver cytosol, with Epalrestat (AKR1B1 inhibitor), 100 µM, t1/2 (min), human liver cytosol + NADPH + AKR1B1 inhibitor (Epalrestat 100 µM)
observable: half-life at 1 µM (min)
Answer with a number only, understood to be in min.

Q: Can you share its half-life at 1 µM? I mean this compound: `CC(=O)[C@H]1CC[C@H]2[C@@H]3CCC4=CC(=O)CC[C@]4(C)[C@H]3CC[C@]12C`
Ans: 18

###

assay_text: Human cytosol stability assay, liver cytosol
measurement_context: human, human liver cytosol, with Allopurinol (xanthine oxidase inhibitor), 100 µM, t1/2 (min), human liver cytosol, absence of NADPH, + XAO inhibitor (Allopurinol 100 µM)
observable: half-life at 1 µM
Note: a bare number is incomplete; add the unit.

Q: Can you share its half-life at 1 µM? I mean this molecule: `CC(=O)[C@H]1CC[C@H]2[C@@H]3CCC4=CC(=O)CC[C@]4(C)[C@H]3CC[C@]12C`
Ans: 1.66 h

###

assay_text: Human cytosol stability assay, liver cytosol
measurement_context: human, human liver cytosol, t1/2 (min), human liver cytosol + NADPH, no inhibitor
observable: half-life at 1 µM (min)
Answer with a number only, understood to be in min.

Q: Can you share its half-life at 1 µM? I mean this compound: `CC(=O)[C@H]1CC[C@H]2[C@@H]3CCC4=CC(=O)CC[C@]4(C)[C@H]3CC[C@]12C`
Ans: 13

###

assay_text: Human cytosol stability assay, intestinal cytosol
measurement_context: human, human intestinal cytosol, with Finasteride (AKR1D1 inhibitor), 100 µM, t1/2 (min), human intestinal cytosol + NADPH + AKR1D1 inhibitor (Finasteride 100 µM)
observable: half-life at 1 µM (h)
Answer with a number only, understood to be in h.

Q: Can you share its half-life at 1 µM? I mean this molecule: `CC(=O)[C@H]1CC[C@H]2[C@@H]3CCC4=CC(=O)CC[C@]4(C)[C@H]3CC[C@]12C`
Ans: 3.03

###

assay_text: Human cytosol stability assay, liver cytosol
measurement_context: human, human liver cytosol, with Menadione (aldehyde oxidase inhibitor), 100 µM, t1/2 (min), human liver cytosol, absence of NADPH, + AOX inhibitor (Menadione 100 µM)
observable: half-life at 1 µM (h)
Answer with a number only, understood to be in h.

Q: Can you share its half-life at 1 µM? I mean this compound: `CC(=O)[C@H]1CC[C@H]2[C@@H]3CCC4=CC(=O)CC[C@]4(C)[C@H]3CC[C@]12C`
Ans: 2.21
